Entries and their measured CC50 follow.
test: Cytotoxicity against human HepG2.2.15 cells assessed as reduction in cell viability; type: cell-based, HepG2 2.2.15
quantity.measured: CC50

>>> assay_result("C#CCCC1(CCOc2cc3c(cc2C(=O)OC)-c2cc(=O)c(C(=O)O)cn2[C@H](C(C)C)C3)N=N1")
"> 150 µM"
>>> assay_result("C#CCCC1(CCOc2cc3c(cc2C(=O)OC)-c2cc(=O)c(C(=O)O)cn2[C@@H](C(C)C)C3)N=N1")
"> 150 µM"

###

Entries and their measured pEC50 follow.
system: Hepatitis B virus; experiment: Antiviral activity against Hepatitis B virus infected in human HepG2.2.15 cells assessed as reduction in HBsAg level in cell supernatants incubated for 5 days by AlphaLisa assay; format: functional, organism-based; details: HepG2.2.15, 120 h
pEC50: −log10 of the molar value.
quantity.measured: pEC50

>>> assay_result("C#CCCC1(CCOc2cc3c(cc2C(=O)OC)-c2cc(=O)c(C(=O)O)cn2[C@@H](C(C)C)C3)N=N1")
6.52
>>> assay_result("COC(=O)c1cc2c(cc1N1CCCC1)CC(C(C)C)n1cc(C(=O)O)c(=O)cc1-2 (centres undefined)")
8.24
>>> assay_result("C#CCCC1(CCOc2cc3c(cc2C(=O)OC)-c2cc(=O)c(C(=O)O)cn2[C@H](C(C)C)C3)N=N1")
8.25

###

test system: Hepatitis B virus; experiment: Antiviral activity against Hepatitis B virus infected in human HepG2.2.15 cells assessed as reduction in HBsAg level in cell supernatants incubated for 5 days by AlphaLisa assay; type: functional, organism-based; details: HepG2.2.15, 120 h
quantity.measured: EC50

>>> assay_result("COCCCOc1cc2c(cc1C(=O)OC)-c1cc(=O)c(C(=O)O)cn1C(C(C)C)C2 (stereo not given)")
"2.25 nM"
>>> assay_result("COCCCOc1cc2c(cc1OC)-c1cc(=O)c(C(=O)O)cn1C(C(C)C)C2 (racemic)")
"1.3 nM"
>>> assay_result("COCCCOc1cc2c(cc1OC)-c1cc(=O)c(-c3csc(N)n3)cn1C(C(C)C)C2 (stereo not given)")
"367 nM"
>>> assay_result("COC(=O)c1cc2c(cc1O)CC(C(C)C)n1cc(C(=O)O)c(=O)cc1-2 (stereo not given)")
"412 nM"
>>> assay_result("COCCCOc1cc2c(cc1OCCOc1ccccc1)-c1cc(=O)c(C(=O)O)cn1C(C(C)C)C2 (stereo not given)")
"154 nM"
